# STUDY TARGET: Lck
# ASSAY OVERVIEW: Z'-LYTE biochemical kinase assay
# CONDITION NOTES: ATP 100 μM
READOUT KIND: IC50 (nM)

>>> readout_value("CC(C)(C)c1cc(NC(=O)Nc2ccc(Oc3ccnc4[nH]c(=O)cnc34)cc2F)n(-c2cccc(F)c2)n1")
19

* * *

# STUDY TARGET: V600EBRAF
# ASSAY OVERVIEW: DELFIA kinase assay (BRAF V600E Kinase Assay)
# CONDITION NOTES: 100 μM ATP
Catalogue of IC50 readings, one per entry.
READOUT KIND: IC50 (nM)

>>> readout_value("CC(C)(C)c1cc(NC(=O)Nc2ccc(Oc3ccnc4[nH]c(=O)cnc34)cc2F)n(-c2ccnc(O)c2)n1")
390
>>> readout_value("Cc1ccc(-n2nc(C(C)(C)C)cc2NC(=O)Nc2ccc(Oc3ccnc4[nH]c(=O)cnc34)cc2F)cn1 [AA-084, reference compound]")
710
>>> readout_value("CC(C)(C)c1cc(NC(=O)Nc2ccc(Oc3ccnc4[nH]c(=O)cnc34)cc2F)n(-c2ccccc2)n1 [AA-019, reference compound]")
55
>>> readout_value("COc1ccc(-n2nc(C(C)(C)C)cc2NC(=O)Nc2ccc(Oc3ccnc4[nH]c(=O)cnc34)cc2F)cn1 [AA-062, reference compound]")
79
>>> readout_value("CC(C)(C)c1cc(NC(=O)Nc2ccc(Oc3ccnc4[nH]c(=O)cnc34)cc2F)n(-c2cccc(F)c2)n1")
62
>>> readout_value("CC(C)(C)c1cc(NC(=O)Nc2ccc(Oc3ccnc4[nH]c(=O)cnc34)cc2F)n(-c2cccc(C(F)(F)F)c2)n1")
130
>>> readout_value("COc1cccc(-n2nc(C(C)(C)C)cc2NC(=O)Nc2ccc(Oc3ccnc4[nH]c(=O)cnc34)cc2F)c1")
47

* * *

# STUDY TARGET: FGFR1
# ASSAY OVERVIEW: Z'-LYTE biochemical kinase assay
# CONDITION NOTES: ATP 100 μM
READOUT KIND: IC50 (µM)

>>> readout_value("CC(C)(C)c1cc(NC(=O)Nc2ccc(Oc3ccnc4[nH]c(=O)cnc34)cc2F)n(-c2cccc(F)c2)n1 [TBAP-01]")
0.47

* * *

# STUDY TARGET: CRAF
# ASSAY OVERVIEW: Z'-LYTE biochemical kinase assay
# CONDITION NOTES: ATP 100 μM
READOUT KIND: IC50 (nM)

>>> readout_value("CC(C)(C)c1cc(NC(=O)Nc2ccc(Oc3ccnc4[nH]c(=O)cnc34)cc2F)n(-c2cccc(F)c2)n1 [TBAP-01]")
33
